Listing of entries alongside the reported half-life.
Experiment: Half-life period in RPMI
Type: ADME
Settings: RPMI medium
# unit: min | format: bare number

CC(=O)OCN(C)/N=N/c1ccc2ncnc(Nc3cccc(Br)c3)c2c1 = 42
CN(CO)/N=N/c1ccc2ncnc(Nc3cccc(Br)c3)c2c1 = 40
C/N=N/Nc1ccc2ncnc(Nc3cccc(C)c3)c2c1 = 35

For the next question, use this compound.
Name the reported half-life value associated with the compound `C/N=N/Nc1ccc2ncnc(Nc3cccc(Br)c3)c2c1` 38

###

Molecular target: Epidermal growth factor receptor (Homo sapiens) (UniProt P00533)
Sequence (P00533 whole entry, looked up): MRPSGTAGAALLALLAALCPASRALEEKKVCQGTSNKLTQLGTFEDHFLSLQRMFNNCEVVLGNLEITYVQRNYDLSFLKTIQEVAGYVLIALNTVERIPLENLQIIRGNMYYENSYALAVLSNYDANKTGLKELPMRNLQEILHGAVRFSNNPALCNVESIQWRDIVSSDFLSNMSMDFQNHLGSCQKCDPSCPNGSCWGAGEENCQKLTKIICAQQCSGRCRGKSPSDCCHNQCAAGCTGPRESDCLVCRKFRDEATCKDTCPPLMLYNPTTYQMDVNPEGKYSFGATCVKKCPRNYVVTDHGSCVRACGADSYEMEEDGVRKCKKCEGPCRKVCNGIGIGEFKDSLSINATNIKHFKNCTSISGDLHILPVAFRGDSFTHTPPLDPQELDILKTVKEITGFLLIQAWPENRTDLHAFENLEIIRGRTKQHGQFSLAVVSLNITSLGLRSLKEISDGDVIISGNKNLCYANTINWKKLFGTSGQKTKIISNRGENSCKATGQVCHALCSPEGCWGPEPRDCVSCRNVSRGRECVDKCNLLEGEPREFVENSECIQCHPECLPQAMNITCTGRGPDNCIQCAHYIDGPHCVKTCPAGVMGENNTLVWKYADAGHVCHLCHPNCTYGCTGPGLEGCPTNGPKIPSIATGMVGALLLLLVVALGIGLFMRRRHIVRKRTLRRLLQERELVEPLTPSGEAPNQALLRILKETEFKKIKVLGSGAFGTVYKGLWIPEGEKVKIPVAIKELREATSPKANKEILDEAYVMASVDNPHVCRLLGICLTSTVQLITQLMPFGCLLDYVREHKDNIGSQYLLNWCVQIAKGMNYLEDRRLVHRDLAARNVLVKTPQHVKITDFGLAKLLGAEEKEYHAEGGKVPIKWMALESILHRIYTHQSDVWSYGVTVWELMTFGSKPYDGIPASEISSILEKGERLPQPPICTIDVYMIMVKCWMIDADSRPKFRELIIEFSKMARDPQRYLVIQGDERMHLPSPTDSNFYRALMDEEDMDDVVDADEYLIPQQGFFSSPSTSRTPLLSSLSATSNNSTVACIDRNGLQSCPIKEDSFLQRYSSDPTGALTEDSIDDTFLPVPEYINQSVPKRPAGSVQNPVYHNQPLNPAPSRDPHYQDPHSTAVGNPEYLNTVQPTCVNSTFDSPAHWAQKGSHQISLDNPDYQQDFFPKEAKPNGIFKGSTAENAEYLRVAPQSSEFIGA
Experiment: Inhibition of epidermal growth factor receptor tyrosine kinase (EGFR TK)
READOUT LABEL: IC50 (nM)
# unit: nM | format: bare number

Given the entry `CC(=O)N(C)/N=N/c1ccc2ncnc(Nc3cccc(C)c3)c2c1` , what IC50 was observed with Epidermal growth factor receptor (Homo sapiens) (UniProt P00533)? 578

###

Assay: Half-life period in phosphate buffered saline (PBS)
Format: ADME
Listing of entries alongside the reported half-life.
# unit: h | format: bare number

Known half-life results, listed for orientation:
CN(CO)/N=N/c1ccc2ncnc(Nc3cccc(Br)c3)c2c1 = 1.17
C/N=N/Nc1ccc2ncnc(Nc3cccc(C)c3)c2c1 = 1.15
CC(=O)OCN(C)/N=N/c1ccc2ncnc(Nc3cccc(Br)c3)c2c1 = 1.4

Name the reported half-life value associated with the compound `C/N=N/Nc1ccc2ncnc(Nc3cccc(Br)c3)c2c1` 1.13
